# target.system: κ-opioid receptor (Homo sapiens)
# assay.summary: Radioligand receptor binding assay, competition with [3H]diprenorphine, κ-receptor
# settings: competition binding, κ-opioid receptor
Please assign False whenever IC50 is at or above 3 nM, and True whenever it is below.

>>> print(df.to_string())
                                   compound  group
0  COc1ccc2c(c1)C(CN1CCCC1)N(C(=O)C1CC(=O)c3ccccc31)CC2 (stereo not drawn) [I-14]  False
1  COc1cc2c(cc1OC)C(C(=O)N1CCc3ccccc3C1CN1CCCC1)CC2=O (stereo not drawn) [I-5]  False
2  O=C1CC(C(=O)N2CCc3ccccc3C2CN2CCCC2)c2cc(Cl)ccc21 (stereo not drawn) [I-6]   True
3  COc1ccc2c(c1)C(CN1CCCC1)N(C(=O)C1CC(=O)c3ccc(Cl)cc31)CC2 (stereo not drawn) [I-18]  False
4  COc1ccc2c(c1)C(C(=O)N1CCc3ccccc3C1CN1CCCC1)CC2=O (stereo not drawn) [I-13]  False
5  O=C1CC(C(=O)N2CCc3ccccc3C2CN2CCCC2)c2ccccc21 (stereo not drawn) [I-1]   True

Value source: patent US7820692B2
